experiment: Ketoprofen plasma levels achieved by on-knee patch delivery (Example 7); assay type: in vivo, human; conditions: human, plasma, topical, 136 mg, Mean Ketoprofen Plasma Concentration, Single Patch; time point 16 hrs; N = 22
endpoint label: concentration at 16 h (ng/mL)

CC(C(=O)O)c1cccc(C(=O)c2ccccc2)c1 (stereo not shown) [Ketoprofen]    48.5

====

assay: Ketoprofen plasma levels achieved by on-knee patch delivery (Example 7); type: in vivo, human; conditions: human, plasma, topical, 136 mg, Mean Ketoprofen Plasma Concentration, Single Patch; time point 24 hrs; N = 22
endpoint label: concentration at 24 h (ng/mL)

CC(C(=O)O)c1cccc(C(=O)c2ccccc2)c1 (stereo not shown)    16.4

====

experiment: Ketoprofen plasma levels achieved by on-knee patch delivery (Example 7); type: in vivo, human; details: human, plasma, topical, 272 mg, Mean Ketoprofen Plasma Concentration, Two Patches; time point 8 hrs; N = 22
endpoint label: concentration at 8 h (ng/mL)

CC(C(=O)O)c1cccc(C(=O)c2ccccc2)c1 (stereo not shown)    217

====

assay: Ketoprofen plasma levels achieved by on-knee patch delivery (Example 7); type: in vivo, human; details: human, plasma, topical, 272 mg, Mean Ketoprofen Plasma Concentration, Two Patches Dose-Normalized to one patch; time point 16 hrs; N = 22
endpoint label: concentration at 16 h (ng/mL)

CC(C(=O)O)c1cccc(C(=O)c2ccccc2)c1 (stereo not shown)    48.2

====

test: Ketoprofen plasma levels achieved by on-knee patch delivery (Example 7); format: in vivo, human; conditions: human, plasma, topical, 272 mg, Mean Ketoprofen Plasma Concentration, Two Patches Dose-Normalized to one patch; time point 42 hrs; N = 22
endpoint label: concentration at 42 h (ng/mL)

CC(C(=O)O)c1cccc(C(=O)c2ccccc2)c1 (stereo not shown)    3.6

====

assay: Ketoprofen plasma levels achieved by on-knee patch delivery (Example 7); format: in vivo, human; conditions: human, plasma, topical, 272 mg, Mean Ketoprofen Plasma Concentration, Two Patches; time point 48 hrs; N = 22
endpoint label: concentration at 48 h (ng/mL)

CC(C(=O)O)c1cccc(C(=O)c2ccccc2)c1 (stereo not shown) [Ketoprofen]    6.2
